Attribution: ChEMBL document CHEMBL3860041

Assay: Growth inhibition of human COLO205 cells at 10 uM after 48 hrs by SRB assay relative to control
Format: functional
Conditions: COLO 205, 48 h, read-out: GI
parameter: inhibition of growth at 10 µM (%)
Dear colleague, please return just the value in %, with no unit written.

Query: Requested field: inhibition of growth at 10 µM. Item: COc1cc2nc(SCc3cc(OC)c(OC)c(OC)c3)n(Cc3ccccc3)c(=O)c2cc1OC
Result: 92.6

====

Assay: Growth inhibition of human MOLT4 cells at 10 uM after 48 hrs by SRB assay relative to control
Type: functional
Details: MOLT-4, 48 h, read-out: GI
parameter: inhibition of growth at 10 µM (%)
Dear colleague, please return just the value in %, with no unit written.

Query: Requested field: inhibition of growth at 10 µM. Item: COc1ccc(-n2c(SCc3cc(OC)c(OC)c(OC)c3)nc3ccc(C)cc3c2=O)cc1
Result: 44

Query: Requested field: inhibition of growth at 10 µM. Item: COc1ccc(CSc2nc3cc(OC)c(OC)cc3c(=O)n2-c2ccc(OC)cc2OC)cc1
Result: 20.6

====

Assay: Growth inhibition of human renal cancer cells after 48 hrs by SRB assay
Assay type: functional
Details: Cancer cell lines
Overview of recorded GI50 for various molecules
Dear colleague, please return just the value in µM, with no unit written.

// below: answered molecules
molecule: O=c1[nH]cc(F)c(=O)[nH]1 [FLUOROURACIL]
GI50, µM: 45.6
--
molecule: COc1cc(CSc2nc3ccc(C)cc3c(=O)n2Cc2ccccc2)cc(OC)c1OC
GI50, µM: 4.3

Here's the next entry for you.
Query: Requested field: GI50. Item: COc1cc(CSc2nc3ccc(Cl)cc3c(=O)n2Cc2ccccc2)cc(OC)c1OC
Result: 4.4

====

Assay: Growth inhibition of human colon cancer cells after 48 hrs by SRB assay
Format: functional
Conditions: Cancer cell lines
Overview of recorded TGI for various compounds
Dear colleague, please return just the value in µM, with no unit written.

molecule: COc1cc(CSc2nc3ccc(Cl)cc3c(=O)n2Cc2ccccc2)cc(OC)c1OC
parameter: TGI
value_measured: 86.3

Query: Requested field: TGI. Item: COc1cc2nc(SCc3cc(OC)c(OC)c(OC)c3)n(Cc3ccccc3)c(=O)c2cc1OC
Result: 87.8

Query: Requested field: TGI. Item: COc1cc(CSc2nc3ccc(C)cc3c(=O)n2Cc2ccccc2)cc(OC)c1OC
Result: 76.1

Query: Requested field: TGI. Item: COc1ccc(-n2c(SCc3cc(OC)c(OC)c(OC)c3)nc3ccc(C)cc3c2=O)c(OC)c1
Result: 87.4

Query: Requested field: TGI. Item: COc1cc(CSc2nc3ccc(C)cc3c(=O)n2-c2ccccc2)cc(OC)c1OC
Result: 86.3

====

Assay: Growth inhibition of human SF295 cells at 10 uM after 48 hrs by SRB assay relative to control
Type: functional
Conditions: SF-295, 48 h, read-out: GI
parameter: inhibition of growth at 10 µM (%)
Dear colleague, please return just the value in %, with no unit written.

// below: answered molecules
molecule: COc1cc(CSc2nc3ccc(C)cc3c(=O)n2-c2ccccc2)cc(OC)c1OC
inhibition of growth at 10 µM [%]: 67.2

molecule: COc1ccc(CSc2nc3cc(OC)c(OC)cc3c(=O)n2-c2ccc(OC)cc2OC)cc1
inhibition of growth at 10 µM [%]: 10.4

molecule: COc1ccc(-n2c(SCc3cc(OC)c(OC)c(OC)c3)nc3ccc(C)cc3c2=O)c(OC)c1
inhibition of growth at 10 µM [%]: 93.7

Query: Requested field: inhibition of growth at 10 µM. Item: COc1cc(CSc2nc3ccc(C)cc3c(=O)n2Cc2ccccc2)cc(OC)c1OC
Result: 69

Query: Requested field: inhibition of growth at 10 µM. Item: COc1ccccc1-n1c(SCc2cc(OC)c(OC)c(OC)c2)nc2ccc(Cl)cc2c1=O
Result: 68.2

Query: Requested field: inhibition of growth at 10 µM. Item: COc1cc2nc(SCc3cc(OC)c(OC)c(OC)c3)n(-c3ccccc3OC)c(=O)c2cc1OC
Result: 26.2

Query: Requested field: inhibition of growth at 10 µM. Item: COc1cc(CSc2nc3ccc(Cl)cc3c(=O)n2-c2ccccc2)cc(OC)c1OC
Result: 15.8

Query: Requested field: inhibition of growth at 10 µM. Item: COc1ccc(-n2c(SCc3cc(OC)c(OC)c(OC)c3)nc3ccc(Cl)cc3c2=O)cc1
Result: 16.7
